Where do these numbers come from? They come from patent US20230219986A1.

Target: Ba/F3 De119/T790M/C797S EGFR triple mutant cell line (Homo sapiens, UniProt P00533, T790M/C797S, cells depend on it, form not given)
Sequence (P00533 with tags, fused parts or gaps DEL746-750/T790M/C797S, form open): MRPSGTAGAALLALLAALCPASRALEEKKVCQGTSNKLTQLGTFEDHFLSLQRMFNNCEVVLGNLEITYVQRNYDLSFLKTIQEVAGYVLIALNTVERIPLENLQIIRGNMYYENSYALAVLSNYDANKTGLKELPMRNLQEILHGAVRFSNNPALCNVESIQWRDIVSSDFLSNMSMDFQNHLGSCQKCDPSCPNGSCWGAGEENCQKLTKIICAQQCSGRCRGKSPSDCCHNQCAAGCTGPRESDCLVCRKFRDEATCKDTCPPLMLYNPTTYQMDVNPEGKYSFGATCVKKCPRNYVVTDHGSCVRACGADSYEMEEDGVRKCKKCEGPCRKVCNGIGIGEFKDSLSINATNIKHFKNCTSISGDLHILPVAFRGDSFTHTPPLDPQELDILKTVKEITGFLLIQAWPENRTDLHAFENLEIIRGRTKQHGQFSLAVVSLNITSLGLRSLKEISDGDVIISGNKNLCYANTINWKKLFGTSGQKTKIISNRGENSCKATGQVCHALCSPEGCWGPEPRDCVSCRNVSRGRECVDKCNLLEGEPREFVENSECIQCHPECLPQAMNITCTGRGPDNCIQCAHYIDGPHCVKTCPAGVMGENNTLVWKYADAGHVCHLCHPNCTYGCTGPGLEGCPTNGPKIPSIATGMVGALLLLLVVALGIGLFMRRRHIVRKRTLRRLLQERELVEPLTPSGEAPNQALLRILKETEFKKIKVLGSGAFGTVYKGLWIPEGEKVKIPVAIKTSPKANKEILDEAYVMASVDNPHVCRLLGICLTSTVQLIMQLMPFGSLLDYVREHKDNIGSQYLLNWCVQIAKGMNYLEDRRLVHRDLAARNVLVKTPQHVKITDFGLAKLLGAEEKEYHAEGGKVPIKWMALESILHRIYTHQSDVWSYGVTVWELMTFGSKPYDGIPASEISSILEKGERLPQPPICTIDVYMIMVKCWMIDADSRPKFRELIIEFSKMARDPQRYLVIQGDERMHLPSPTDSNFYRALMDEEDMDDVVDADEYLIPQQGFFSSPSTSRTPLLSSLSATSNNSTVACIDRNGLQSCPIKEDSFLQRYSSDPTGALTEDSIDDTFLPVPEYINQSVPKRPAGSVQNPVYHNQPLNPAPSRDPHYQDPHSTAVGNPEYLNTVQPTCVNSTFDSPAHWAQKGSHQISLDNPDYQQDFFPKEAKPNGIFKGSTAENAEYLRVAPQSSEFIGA
Assay: Cell proliferation inhibition experiment (CellTiter-Glo), Ba/F3 De119/T790M/C797S
Format: cell-based
Details: Ba/F3 Del19/T790M/C797S EGFR triple mutant cells, 72 hours, Cell Titer-Glo; read-out: Ba/F3 (Del19/T790M/C797S) IC50
# label = Y if GI50 < 2 nM else N

COc1cc(N2CCC3(CC2)CO[C@@H](C)[C@@H]3N(C)C)c(-c2cnn(C)c2)cc1Nc1ncc(Br)c(Nc2ccc3nccnc3c2P(C)(C)=O)n1 (stereo in doubt) ... N
COc1cc(N2CCC3(CC2)CN(C)CCO3)c(-c2cnn(C)c2)cc1Nc1ncc(Br)c(Nc2ccc3nccnc3c2P(C)(C)=O)n1 ... Y
COc1cc(N2C[C@@H](C)O[C@@H](C)C2)c(-c2cnn(C)c2)cc1Nc1ncc(Br)c(Nc2ccc3nccnc3c2P(C)(C)=O)n1 ... N
Cn1cc(-c2cc(Nc3ncc(Br)c(Nc4ccc5nccnc5c4P(C)(C)=O)n3)cc(F)c2N2CCOCC2)cn1 ... N

As a next step, examine the molecule that follows.
Lab note: GI50 threshold 2 nM. Does this molecule come in strictly under it? COc1cc(N2CCN(CC3CC3)CC2)c(-c2cnn(C)c2)cc1Nc1ncc(Br)c(Nc2ccc3nccnc3c2P(C)(C)=O)n1 [compound 235] N

###

Biological target: Ba/F3 De119/T790M/C797S EGFR triple mutant cell line (Homo sapiens, UniProt P00533, T790M/C797S, cells depend on it, form not given)
Experiment: Cell proliferation inhibition experiment (CellTiter-Glo), Ba/F3 De119/T790M/C797S
Type: cell-based
Conditions: Ba/F3 Del19/T790M/C797S EGFR triple mutant cells, 72 hours, Cell Titer-Glo; read-out: Ba/F3 (Del19/T790M/C797S) IC50
Catalogue of GI50 readings, one per entry.
Output spec: scalar in nM, unitless text.

COc1cc(N2CCN(CCF)CC2)c(-c2cnn(C)c2)cc1Nc1ncc(Br)c(Nc2cc3c(cc2P(C)(C)=O)CC3)n1 ... 9.31

Reported GI50, molecule COc1cc(N2CC3CN(CCF)CC3C2)c(-c2cnn(C)c2)cc1Nc1ncc(Br)c(Nc2ccc3nccnc3c2P(C)(C)=O)n1 (stereo not shown) : ____ 3.76

Query COc1cc(N2CCC(N(C)C)C(F)C2)c(-c2cnn(C)c2)cc1Nc1ncc(Br)c(Nc2ccc3nccnc3c2P(C)(C)=O)n1 (stereo not shown) next 2.06

###

Target: wild-type EGFR (Homo sapiens)
Construct: purchased Signalchem
Sequence (P00533 25-1210): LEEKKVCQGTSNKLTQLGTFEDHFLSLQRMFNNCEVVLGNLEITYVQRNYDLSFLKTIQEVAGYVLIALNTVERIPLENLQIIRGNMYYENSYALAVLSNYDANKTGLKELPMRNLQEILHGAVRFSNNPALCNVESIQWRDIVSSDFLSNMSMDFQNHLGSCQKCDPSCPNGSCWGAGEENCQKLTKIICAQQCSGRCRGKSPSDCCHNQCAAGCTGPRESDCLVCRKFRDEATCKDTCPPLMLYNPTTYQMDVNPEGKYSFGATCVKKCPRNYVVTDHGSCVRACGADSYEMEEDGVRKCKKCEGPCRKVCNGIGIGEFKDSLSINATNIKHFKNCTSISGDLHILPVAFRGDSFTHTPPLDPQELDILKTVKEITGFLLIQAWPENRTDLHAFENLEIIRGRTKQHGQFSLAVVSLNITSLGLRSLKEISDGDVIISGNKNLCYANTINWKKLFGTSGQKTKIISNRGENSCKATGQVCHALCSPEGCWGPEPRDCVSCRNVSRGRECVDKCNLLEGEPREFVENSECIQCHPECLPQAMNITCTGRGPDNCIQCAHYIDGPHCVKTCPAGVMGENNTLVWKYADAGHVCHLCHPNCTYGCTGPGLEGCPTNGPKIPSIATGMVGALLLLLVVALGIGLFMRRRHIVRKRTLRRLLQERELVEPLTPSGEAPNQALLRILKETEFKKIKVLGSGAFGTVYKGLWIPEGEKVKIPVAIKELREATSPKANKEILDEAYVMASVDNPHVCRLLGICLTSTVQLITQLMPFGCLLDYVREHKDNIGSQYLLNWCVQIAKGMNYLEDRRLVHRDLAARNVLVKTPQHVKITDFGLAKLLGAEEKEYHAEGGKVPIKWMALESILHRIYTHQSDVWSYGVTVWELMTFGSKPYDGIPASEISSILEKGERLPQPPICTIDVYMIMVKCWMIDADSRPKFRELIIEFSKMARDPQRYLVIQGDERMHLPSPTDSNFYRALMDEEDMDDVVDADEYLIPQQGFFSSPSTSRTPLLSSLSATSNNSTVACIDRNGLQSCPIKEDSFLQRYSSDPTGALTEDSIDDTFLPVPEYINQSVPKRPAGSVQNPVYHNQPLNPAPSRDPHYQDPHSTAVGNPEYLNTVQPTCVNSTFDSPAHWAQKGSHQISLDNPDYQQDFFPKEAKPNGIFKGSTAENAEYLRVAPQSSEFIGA
Test: Enzymology experiment in vitro (HTRF/FRET kinase activity), wild-type EGFR
Type: biochemical
Conditions: HTRF KinEASE-TK, read-out: EGFR (WT) IC50
pIC50: −log10 of the molar value.
Rule: true for pIC50 not less than 8, false for anything less.

Is it the case that COc1cc(N2CCN(CC3CC3)CC2)c(-c2cnn(C)c2)cc1Nc1ncc(Br)c(Nc2ccc3nccnc3c2P(C)(C)=O)n1 [compound 157] has pIC50 reaching or exceeding 8? true

Query COc1cc(N2CCN(CCC(F)F)CC2)c(-c2cnn(C)c2)cc1Nc1ncc(Br)c(Nc2ccc3nccnc3c2P(C)(C)=O)n1 [compound 222] next true

Query CCN1CCC2(CC1)CCN(c1cc(OC)c(Nc3ncc(Br)c(Nc4ccc5nccnc5c4P(C)(C)=O)n3)cc1-c1cnn(C)c1)CC2 [compound 226] next true

Query COc1c(Nc2ncc(Br)c(Nc3ccc4nccnc4c3P(C)(C)=O)n2)cc(-c2cnn(C)c2)c(N2CCC(N3CCN(C)CC3)CC2)c1F [compound 93] next false
